- Tested on: LPAAT
- assay-details: LPAAT acyl-CoA substrate specificity, sunflower microsomal membranes
- Assay type: biochemical
- test-context: 20 nmol acyl-CoA, sn-1-oleoyl-lysophosphatidic acid, DTNB assay
assay-readout: Percentage incorporation in comparison with the incorporation of oleic acid
State the value, then name its unit.

Field Percentage incorporation in comparison with the incorporation of oleic acid (entry CCCCCCCCCCCCCC(=O)SCCNC(=O)CCNC(=O)[C@H](O)C(C)(C)COP(=O)(O)OP(=O)(O)OC[C@H]1O[C@@H](n2cnc3c(N)ncnc32)[C@H](O)[C@@H]1OP(=O)(O)O [Myristoyl-CoA, myristoyl-CoA] ) reads 16%

Field Percentage incorporation in comparison with the incorporation of oleic acid (entry CCCCCCCCCCCCCCCCCC(=O)SCCNC(=O)CCNC(=O)[C@H](O)C(C)(C)COP(=O)(O)OP(=O)(O)OC[C@H]1O[C@@H](n2cnc3c(N)ncnc32)[C@H](O)[C@@H]1OP(=O)(O)O [Stearoyl-CoA, stearoyl-CoA] ) reads 14%

Field Percentage incorporation in comparison with the incorporation of oleic acid (entry CCCCCC/C=C\CCCCCCCC(=O)SCCNC(=O)CCNC(=O)[C@H](O)C(C)(C)COP(=O)(O)OP(=O)(O)OC[C@H]1O[C@@H](n2cnc3c(N)ncnc32)[C@H](O)[C@@H]1OP(=O)(O)O [Palmitololeoyl-CoA, palmitoleoyl-CoA] ) reads 140%

Field Percentage incorporation in comparison with the incorporation of oleic acid (entry CCCCC/C=C\C/C=C\CCCCCCCC(=O)SCCNC(=O)CCNC(=O)[C@H](O)C(C)(C)COP(=O)(O)OP(=O)(O)OC[C@H]1O[C@@H](n2cnc3c(N)ncnc32)[C@H](O)[C@@H]1OP(=O)(O)O [Linoleoyl-CoA, linoleoyl-CoA] ) reads 250%

----------
- Test system: GPAT
- assay-details: GPAT acyl-CoA substrate specificity, linseed microsomal membranes
- Format: biochemical
- test-context: 0.2 mM acyl-CoA, 5 mM [14C] G3P, 5 minutes
For each record, write down the corresponding Percentage incorporation in comparison with the incorporation of oleic acid.
All answers are understood in %, so give the number only.

Field Percentage incorporation in comparison with the incorporation of oleic acid (entry CCCCCCCCCCCCCCCCCC(=O)SCCNC(=O)CCNC(=O)[C@H](O)C(C)(C)COP(=O)(O)OP(=O)(O)OC[C@H]1O[C@@H](n2cnc3c(N)ncnc32)[C@H](O)[C@@H]1OP(=O)(O)O [Stearoyl-CoA, stearoyl-CoA] ) reads 65

Field Percentage incorporation in comparison with the incorporation of oleic acid (entry CCCCC/C=C\C/C=C\C/C=C\C/C=C\CCCC(=O)SCCNC(=O)CCNC(=O)[C@H](O)C(C)(C)COP(=O)(O)OP(=O)(O)OC[C@H]1O[C@@H](n2cnc3c(N)ncnc32)[C@H](O)[C@@H]1OP(=O)(O)O [Arachidonoyl-CoA, arachidonyl-CoA] ) reads 5

Field Percentage incorporation in comparison with the incorporation of oleic acid (entry CCCCCCCCCCCCCC(=O)SCCNC(=O)CCNC(=O)[C@H](O)C(C)(C)COP(=O)(O)OP(=O)(O)OC[C@H]1O[C@@H](n2cnc3c(N)ncnc32)[C@H](O)[C@@H]1OP(=O)(O)O [Myristoyl-CoA, myristoyl-CoA] ) reads 100

Field Percentage incorporation in comparison with the incorporation of oleic acid (entry CCCCC/C=C\C/C=C\CCCCCCCC(=O)SCCNC(=O)CCNC(=O)[C@H](O)C(C)(C)COP(=O)(O)OP(=O)(O)OC[C@H]1O[C@@H](n2cnc3c(N)ncnc32)[C@H](O)[C@@H]1OP(=O)(O)O [Linoleoyl-CoA, linoleoyl-CoA] ) reads 90
